- tested-target: UniProt:P18031
- Sequence (P18031 whole entry): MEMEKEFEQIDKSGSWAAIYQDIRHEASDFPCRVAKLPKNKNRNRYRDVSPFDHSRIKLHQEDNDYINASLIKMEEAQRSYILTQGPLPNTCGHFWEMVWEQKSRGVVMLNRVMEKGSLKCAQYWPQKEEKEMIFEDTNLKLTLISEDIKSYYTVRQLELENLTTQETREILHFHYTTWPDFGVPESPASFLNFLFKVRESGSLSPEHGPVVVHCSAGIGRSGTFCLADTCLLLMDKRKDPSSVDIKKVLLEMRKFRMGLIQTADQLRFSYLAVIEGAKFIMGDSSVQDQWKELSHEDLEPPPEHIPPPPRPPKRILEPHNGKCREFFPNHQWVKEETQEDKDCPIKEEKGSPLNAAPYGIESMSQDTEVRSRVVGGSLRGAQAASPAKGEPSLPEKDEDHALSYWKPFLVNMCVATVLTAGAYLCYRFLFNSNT
- procedure-text: Inhibition of PTP1B (unknown origin) using p-nitrophenylphosphate as substrate at 100 uM after 10 min
Classify as follows. Reported inhibition greater than or equal to 60%: fulfilled. Reported inhibition below: not fulfilled.

INSERT INTO results (compound, class) VALUES
  ('CC(=O)Oc1ccc(C2=NOC(c3ccccc3)C2)c(OC(C)=O)c1 (stereo not given)', 'fulfilled'),
  ('COc1ccc(C2CC(c3ccc(OC)cc3OC)=NO2)cc1 (stereo not given)', 'fulfilled'),
  ('COc1ccc(C2=NOC(c3ccccc3)C2)c(O)c1 (stereo not given)', 'not fulfilled'),
  ('COc1ccc(C2=NOC(c3ccncc3)C2)c(OC)c1 (stereo not given)', 'not fulfilled'),
  ('COC(=O)C1C(c2ccc(OC)cc2OC)=NOC1c1ccccc1 (stereo not given)', 'not fulfilled'),
  ('COc1ccc(C2=NOC(c3ccccc3)C2)c(OC)c1 (stereo not given)', 'fulfilled'),
  ('COc1ccc(C2=NOC(c3ccccn3)C2)c(OC)c1 (stereo not given)', 'not fulfilled'),
  ('COc1ccc(C2=NOC(c3ccccc3)C2)c(OC(C)=O)c1 (stereo not given)', 'not fulfilled'),
  ('COc1c(C2=NOC(c3ccccc3)C2)ccc2occc12 (stereo not given)', 'fulfilled'),
  ('COc1ccc(C2=NOC(n3ccnc3)C2)c(OC)c1 (stereo not given)', 'fulfilled'),
  ('Oc1ccc(C2=NOC(c3ccccc3)C2)c(O)c1 (stereo not given)', 'not fulfilled'),
  ('COc1c(C2=NOC(c3ccccc3)C2)ccc2c1C=CC(C)(C)O2 (stereo not given)', 'fulfilled'),
  ('COc1ccc(C2CC(c3ccc4c(c3OC)C=CC(C)(C)O4)=NO2)cc1 (stereo not given)', 'not fulfilled'),
  ('COc1ccc(C2CC(c3ccc4occc4c3OC)=NO2)cc1 (stereo not given)', 'fulfilled'),
  ('COc1c(C2=NOC(c3ccccn3)C2)ccc2c1C=CC(C)(C)O2 (stereo not given)', 'fulfilled');
